Cited source: patent US20230235054A1

Biological target: T1, cynoNectin4-mFc (cyno, UniProt A0A2K5WES1 32-349)
T1 construct: Immobilized on the SPR chip; also called cyanoNectin4; not shown: mFc (mouse Fc)
T1 sequence: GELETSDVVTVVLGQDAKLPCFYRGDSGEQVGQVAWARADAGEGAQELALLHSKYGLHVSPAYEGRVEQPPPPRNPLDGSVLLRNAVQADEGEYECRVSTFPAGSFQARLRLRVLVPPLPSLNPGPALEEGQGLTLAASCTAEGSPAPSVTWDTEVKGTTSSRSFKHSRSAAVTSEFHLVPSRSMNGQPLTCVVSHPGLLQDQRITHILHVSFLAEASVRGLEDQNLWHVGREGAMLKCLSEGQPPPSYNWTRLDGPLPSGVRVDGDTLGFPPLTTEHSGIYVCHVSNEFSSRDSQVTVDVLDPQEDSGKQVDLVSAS
Assay: SPR, cynoNectin4-mFc immobilized, pH 6.5
Provide the reported koff of each item.
State just the number; it will be interpreted in s⁻¹.

Entry under test: BAP-143-07-03-12 (antibody, V domains shown, Used as a conjugate with a linker payload (CAB ADC)) VH: EVQLVESGGGLVQPGGSLRLSCAASGFTFSSYNMNWVRQAPGKGLEWVSYISSSSSTIYYADSVKGRFTISRDNAKNSLSLQMNSLRDEDTAVYYCARAYYYGMDKWGQGTTVTVSS VL: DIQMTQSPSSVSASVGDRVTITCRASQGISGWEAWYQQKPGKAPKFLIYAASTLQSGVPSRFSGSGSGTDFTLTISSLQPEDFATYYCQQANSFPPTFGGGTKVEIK . Its koff was 0.000876

Entry under test: BAP-143-00-01 (antibody, V domains shown, Used as a conjugate with a linker payload (CAB ADC)) VH: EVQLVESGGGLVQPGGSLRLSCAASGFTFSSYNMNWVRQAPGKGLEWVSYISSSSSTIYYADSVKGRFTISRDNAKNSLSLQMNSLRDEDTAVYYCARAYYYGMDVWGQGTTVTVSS VL: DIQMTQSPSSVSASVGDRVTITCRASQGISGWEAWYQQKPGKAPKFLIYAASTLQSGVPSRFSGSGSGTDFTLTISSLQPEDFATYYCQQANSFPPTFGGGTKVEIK . Its koff was 0.000859

Entry under test: BAP-143-06-24-16 (antibody, V domains shown, Used as a conjugate with a linker payload (CAB ADC)) VH: EVQLVQSGAEVKKPGATVKISCKVSGFTFSSYNMNWIRQSPSRGLEWLGYISSSSSTIYYADSVKGRFTISRDNSKNTLYLQMNSLRAEDTAVYYCARAYYYGDDVWGQGTLVTVSS VL: DIQMTQSPSSVSASVGDRVTITCHASQGISGWLAWYQQKPGKAPKFLIYAASTLQSGVPSRFSGSGSGTDFTLTISSLQPEDFATYYCQQANSFPPTFGGGTKVEIK . Its koff was 8.99e-05
